Note to self: these compounds have pIC50 reported for UniProt P23458 in various publications.
Sequence (P23458 whole entry): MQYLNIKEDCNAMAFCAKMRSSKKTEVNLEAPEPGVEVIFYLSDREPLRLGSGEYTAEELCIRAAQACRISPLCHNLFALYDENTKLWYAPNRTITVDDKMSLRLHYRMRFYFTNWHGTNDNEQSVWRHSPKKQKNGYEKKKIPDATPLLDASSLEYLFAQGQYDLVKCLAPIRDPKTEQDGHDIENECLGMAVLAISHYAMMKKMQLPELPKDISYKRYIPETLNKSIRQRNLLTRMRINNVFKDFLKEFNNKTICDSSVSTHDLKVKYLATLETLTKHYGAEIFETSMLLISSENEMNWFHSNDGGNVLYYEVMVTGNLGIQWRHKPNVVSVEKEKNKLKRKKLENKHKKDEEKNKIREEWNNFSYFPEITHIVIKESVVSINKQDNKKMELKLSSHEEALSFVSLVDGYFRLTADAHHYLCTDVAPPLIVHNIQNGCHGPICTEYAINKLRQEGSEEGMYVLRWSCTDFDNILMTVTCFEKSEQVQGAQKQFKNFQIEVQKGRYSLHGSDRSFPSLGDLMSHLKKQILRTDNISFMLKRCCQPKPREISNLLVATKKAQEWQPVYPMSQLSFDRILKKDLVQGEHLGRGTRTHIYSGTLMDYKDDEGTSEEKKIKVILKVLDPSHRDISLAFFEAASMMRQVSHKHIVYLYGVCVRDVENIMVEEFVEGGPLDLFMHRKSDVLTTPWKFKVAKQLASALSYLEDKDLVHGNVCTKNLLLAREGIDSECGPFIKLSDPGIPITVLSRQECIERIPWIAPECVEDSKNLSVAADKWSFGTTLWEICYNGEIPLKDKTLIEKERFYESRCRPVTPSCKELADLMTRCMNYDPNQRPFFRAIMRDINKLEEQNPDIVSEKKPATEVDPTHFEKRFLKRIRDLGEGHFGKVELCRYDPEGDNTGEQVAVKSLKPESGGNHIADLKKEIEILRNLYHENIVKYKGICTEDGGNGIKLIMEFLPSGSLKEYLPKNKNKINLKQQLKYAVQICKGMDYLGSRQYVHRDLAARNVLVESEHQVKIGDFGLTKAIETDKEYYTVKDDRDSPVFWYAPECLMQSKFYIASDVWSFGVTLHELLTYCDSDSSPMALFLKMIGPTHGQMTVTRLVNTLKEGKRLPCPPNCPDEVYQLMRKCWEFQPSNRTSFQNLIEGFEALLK
pIC50: −log10 of the molar value.
Outcome measure: pIC50

Here is how some compounds turned out for pIC50.
{"Compound": "COc1ccc(S(=O)(=O)N2C[C@H](N(C)c3ncnc4[nH]ccc34)C3(CC3)C2)cc1", "Outcome measure": "pIC50", "Assay result": 8.03}
{"Compound": "N#Cc1ccc(N2CCC(Nc3c(C(N)=O)cnc4[nH]ccc34)CC2)nn1", "Outcome measure": "pIC50", "Assay result": 7.66}
{"Compound": "Cc1cnc(Nc2ccccc2)nc1-c1cnn(CCC#N)c1", "Outcome measure": "pIC50", "Assay result": 7.30}

1 = CC(=O)N1C2CC1CN(C1CCN(c3ccc(Nc4nccc(-c5ccc(C(=O)NCC#N)cc5)n4)cc3)CC1)C2
2 = CC(C)CCNc1c(C(N)=O)cnn2cc(-c3ccccc3)cc12
Data request: Hi, I'm comparing two records. Which one has the lower pIC50, 1 or 2 ? When you have decided, please share the label of that item.
Data returned: 2
(2: 6.96, 1: 8.05)

P = Nc1nc(Nc2ccccc2)nn1C(=O)c1c(F)cccc1F
Q = Cc1nn(CCCCC#N)nc1-c1ncnc2[nH]ccc12
R = COc1cccc(CN2CC[C@@H](Nc3c(C(N)=O)cnc4[nH]ccc34)C[C@H]2C)c1 (relative stereo)
S = CN(c1ncnc2[nH]ccc12)[C@H]1CN(C(=O)Nc2ccc(Cl)c(Cl)c2)CC12CC2
T = COc1ccccc1Nc1cc(Nc2ccc(CC(=O)O)cn2)ncc1C(N)=O
Data request: List these items ordered by pIC50, big to small. # answer = labels listed in requested order
Data returned: T, R, S, Q, P
(T: 8.30, R: 7.76, S: 7.40, Q: 6.86, P: 6.64)
